tgt: T1, somatostatin receptor 5 (UniProt P35346 1-364, limits assumed)
T1 construct: whole, on cells; Assayed as membrane preparation of CHO-K1 cells stably expressing the cloned receptor; also called SSTR5; somatostatin receptor subtype 5
protocol_notes: ratio of IC50 on SSTR2 to IC50 on SSTR5 (reference SSTR2), radioligand competition binding on CHO-K1 membranes
[ ]: non-standard residue; d: D form. GlyMeDOTA = DOTA chelator on the lysine side chain; Dip = N[C@H](C(=O)O)C(c1ccccc1)c1ccccc1; 1Nal = N[C@@H](Cc1cccc2ccccc12)C(=O)O; NMeF = CN[C@@H](Cc1ccccc1)C(=O)O; Dap = NC[C@H](N)C(=O)O
measurement_type: Ratio 2/5 in % (%)
Give bare numbers, in %.

Please supply Ratio 2/5 in % for each of the following items, keeping them in order.
1. cyclo([1Nal][dW]KTM[NMeF]) (also: tested peptides comprised a lanthanide chelation unit, not shown, also called cyclo[(1)Nal-DTrp-Lys-Thr-Met-(NMe)Phe]) [P2278]
2. cyclo([1Nal][dW]KVM[NMeF]) (SMILES CSCC[C@@H]1NC(=O)[C@H](C(C)C)NC(=O)[C@H](CCCCN)NC(=O)[C@@H](Cc2c[nH]c3ccccc23)NC(=O)[C@H](Cc2cccc3ccccc23)NC(=O)[C@H](Cc2ccccc2)N(C)C1=O, Cyclic hexapeptide; also called cyclo[1Nal-DTrp-Lys-Val-Met-(N-Me)Phe]) [P2329]
3. cyclo([Dip][dW]KTM[NMeF]) (SMILES CSCC[C@@H]1NC(=O)[C@H]([C@@H](C)O)NC(=O)[C@H](CCCCN)NC(=O)[C@@H](Cc2c[nH]c3ccccc23)NC(=O)[C@H](C(c2ccccc2)c2ccccc2)NC(=O)[C@H](Cc2ccccc2)N(C)C1=O, Cyclic hexapeptide; also called cyclo[DiphenylAla-DTrp-Lys-Thr-Met-(N-Me)Phe]) [P2326]
4. cyclo(Y[dW]K[Dap]M[NMeF]) (SMILES CSCC[C@@H]1NC(=O)[C@H](CN)NC(=O)[C@H](CCCCN)NC(=O)[C@@H](Cc2c[nH]c3ccccc23)NC(=O)[C@H](Cc2ccc(O)cc2)NC(=O)[C@H](Cc2ccccc2)N(C)C1=O, Cyclic hexapeptide; also called cyclo[Tyr-DTrp-Lys-Dpr-Met-(NMe)Phe]) [P2267]
5. cyclo(Y[dW]KTM[NMeF]) (SMILES CSCC[C@@H]1NC(=O)[C@H]([C@@H](C)O)NC(=O)[C@H](CCCCN)NC(=O)[C@@H](Cc2c[nH]c3ccccc23)NC(=O)[C@H](Cc2ccc(O)cc2)NC(=O)[C@H](Cc2ccccc2)N(C)C1=O, Cyclic hexapeptide; also called cyclo[Tyr-DTrp-Lys-Thr-Met-(NMe)Phe]) [P2265]
6. cyclo(Y[dW]KVM[NMeF]) (SMILES CSCC[C@@H]1NC(=O)[C@H](C(C)C)NC(=O)[C@H](CCCCN)NC(=O)[C@@H](Cc2c[nH]c3ccccc23)NC(=O)[C@H](Cc2ccc(O)cc2)NC(=O)[C@H](Cc2ccccc2)N(C)C1=O, Cyclic hexapeptide; also called cyclo[Tyr-DTrp-Lys-Val-Met-(NMe)Phe]) [P2266]

(A)
1: 27.9; 2: 10.5; 3: 0.42; 4: 1.9; 5: 1.2; 6: 3.2

(Q) Give the measured Ratio 2/5 in % of cyclo([1Nal][dW]KTK(GlyMeDOTA)[NMeF]) (Cyclic hexapeptide carrying a DOTA chelator on Lys 5; also called cyclo[1Nal-DTrp-Lys-Thr-Lys(GlyMeDOTA)-(N-Me)Phe]) [P2323] .
(A) 399

Where do the numbers come from? From patent US20070066516A1.
